Tested on: SF-539
Test: NCI tumour cell line growth inhibition, 48 h
Activity calls are given as the source filed them. Rule as the data show it: active = GI50 up to about 1.1 µM and inactive = higher.
The compounds listed here are annotated with their GI50.

Answer with reported GI50 of Cc1cc2oc(=O)c(Cl)c(Cl)c2c(C)c1Cl 9.35 µM (inactive)

Answer with reported GI50 of COc1cc(COC(=O)N2CC=CC2C(=O)O)c([N+](=O)[O-])cc1OC (configuration not stated) > 100 µM (inactive)

Answer with reported GI50 of CC(C)CNc1nc(N)nc(O)c1NC=O > 100 µM (inactive)

Answer with reported GI50 of CC(C)(C)OC(=O)C1CC[C@@H](CC(=O)Oc2ccc([N+](=O)[O-])cc2)N1 (some centres not stated) > 100 µM (inactive)

Answer with reported GI50 of O/N=C1\CSc2ccccc2C1 > 100 µM (inactive)

Answer with reported GI50 of COc1c(-c2nc3ccc(N4CCN(C)CC4)nc3[nH]2)cc(OC)c2[nH]c(COC(C)=O)nc12 14.9 µM (inactive)

Answer with reported GI50 of CC1=C(O)C(=O)C2C(=O)C1C(C)C2c1ccccc1 (configuration not stated) > 100 µM (inactive)

* * *

Tested on: NCI/ADR-RES
Experiment: NCI tumour cell line growth inhibition, 48 h
The source made the active and inactive calls. Cut-off read from the data, not from the text of the source: active = GI50 up to about 1.1 µM and inactive = higher.
measured.metric: GI50

See these solved cases before continuing.
>>> observed_value("CN(C)CC1CCC/C(=C\\c2ccc(Cl)c(Cl)c2)C1=O (stereo unspecified)")
"3.05 µM (inactive)"
>>> observed_value("O=C(Nc1ccccc1)OCCN=C1c2ccccc2C(Br)C(Br)c2ccccc21 (stereo unspecified)")
"11.7 µM (inactive)"
>>> observed_value("C=C1C(=O)C([Si](C)(C)C)=C2C=C(C)C3(CC3)C12C (stereo unspecified)")
"13.7 µM (inactive)"
>>> observed_value("CCOc1cc(-c2nc3ccccn3c2/N=C/c2cc([N+](=O)[O-])cc([N+](=O)[O-])c2O)ccc1O")
"> 100 µM (inactive)"
>>> observed_value("COc1ccc(-c2c(C#N)c(O)n(NS(=O)(=O)c3ccc(C)cc3)c(=O)c2C#N)cc1")
"61.9 µM (inactive)"

Answer with reported GI50 of COC(=O)C(/C(=N/N)C(=O)Nc1cc(Cl)c(Cl)cc1Cl)c1nc2ccc(Cl)cc2nc1O (stereo unspecified) 84.5 µM (inactive)

Answer with reported GI50 of Cc1ccc(/C=C2\NC(=S)N(CN3CCCCC3)C2=O)cc1 57.7 µM (inactive)

Answer with reported GI50 of COC(=O)C1=C(OC(=O)/C(=C/c2ccccc2)c2ccccc2)C(C(=O)OC)[C@@]2(O)[C@@H](C(=O)OC)[C@H](C)C[C@@H]1[C@@H]2C(=O)OC (stereo partly specified) > 100 µM (inactive)

Answer with reported GI50 of O=C(NCCCCN(CCCNC(=O)C(F)(F)F)Cc1ccc2ccccc2c1)C(F)(F)F 14.5 µM (inactive)

Answer with reported GI50 of Cc1cccc2nc3cc(O)cc(O)c3c(O)c12 > 10 µM (inactive)

Answer with reported GI50 of C#CC1=CC(=O)C(OC)=CC1=O 32.9 µM (inactive)

Answer with reported GI50 of Cc1ccc(C#CS(=O)(=O)C(F)(F)F)cc1 > 100 µM (inactive)

Answer with reported GI50 of O=C1c2cc(Cl)ccc2N=C(NCCCl)C2CSCN12 (stereo unspecified) > 100 µM (inactive)

Answer with reported GI50 of COc1c(-c2nc3ccc(N4CCN(C)CC4)nc3[nH]2)cc(OC)c2[nH]c(COC(C)=O)nc12 > 100 µM (inactive)

* * *

Test system: SK-MEL-5
Test: NCI tumour cell line growth inhibition, 48 h
Activity calls are given as the source filed them. Rule as the data show it: active = GI50 up to about 1.1 µM and inactive = higher.
The compounds listed here are annotated with their GI50.

>>> observed_value("CCOc1cc(-c2nc3ccccn3c2/N=C/c2cc([N+](=O)[O-])cc([N+](=O)[O-])c2O)ccc1O")
"> 100 µM (inactive)"
>>> observed_value("COc1ccccc1CCc1cc(OC)c(OC)c(OC)c1")
"19.5 µM (inactive)"
>>> observed_value("COc1cc2cccc(NC(=O)c3cc(OC)c(OC)c(OC)c3Br)c2cc1OC")
"3.24 µM (inactive)"
>>> observed_value("CC(=O)OC1(C)C=CC(=O)C=C1")
"40.2 µM (inactive)"
>>> observed_value("O=C1NC(=O)C(CCO)(c2ccccc2)C(=O)N1")
"> 100 µM (inactive)"

Answer with reported GI50 of COc1ccc(Cl)cc1NC(=O)c1cccc([N+](=O)[O-])c1O 4 µM (inactive)

Answer with reported GI50 of CC(=O)OCCOCNC(=S)N/N=C(\C)c1cccs1 > 100 µM (inactive)

* * *

The molecules listed here are annotated with their GI50.
Test system: MDA-MB-231
Assay: NCI tumour cell line growth inhibition, 48 h
Activity calls are given as the source filed them. Cut-off read from the data, not from the text of the source: active = GI50 up to about 1.1 µM and inactive = higher.

>>> observed_value("CC(=O)Oc1ccc2c(c1)oc1c3ccc(OC(C)=O)cc3n(C)c(=O)c21")
"27 µM (inactive)"
>>> observed_value("CC(=O)OC(/C=C/c1ccccc1)=C(OC(C)C)/C1=C(\\c2ccccc2)SCCCSC1=O")
"> 100 µM (inactive)"

// switching to the query molecule
Answer with reported GI50 of O=C1CCC2c3ccccc3NCN12 (stereo not drawn) > 100 µM (inactive)

* * *

The molecules listed here are annotated with their GI50.
Tested on: LOX IMVI
Assay: NCI tumour cell line growth inhibition, 48 h
Activity calls are given as the source filed them. Cut-off read from the data, not from the text of the source: active = GI50 up to about 1.1 µM and inactive = higher.

See these solved cases before continuing.
>>> observed_value("COC(=O)C1=C(OC(=O)/C(=C/c2ccccc2)c2ccccc2)C(C(=O)OC)[C@@]2(O)[C@@H](C(=O)OC)[C@H](C)C[C@@H]1[C@@H]2C(=O)OC (some centres undefined)")
"> 100 µM (inactive)"
>>> observed_value("O=S(O)CCCCSSCCCCSSCCCCS(=O)O")
"12.8 µM (inactive)"
>>> observed_value("N#CSC1CCCCNC1=O (centres undefined)")
"13.5 µM (inactive)"
>>> observed_value("COc1c(-c2ccc3c(c2)OCO3)oc2cc3c(c(OC)c2c1=O)OCO3 [MELITERNATIN]")
"11.6 µM (inactive)"

Give GI50 only, for N#Cc1c(-c2ccccc2)cc(-c2cccs2)c(C#N)c1N , using LOX IMVI data. > 100 µM (inactive)

Give GI50 only, for CN1C(=O)C23CCCCC2CC1(c1ccccc1)S3 (centres undefined) , using LOX IMVI data. 79.8 µM (inactive)

Give GI50 only, for O=S1(=O)CCCS(=O)(=O)C(c2ccccc2)=C1c1ccccc1 , using LOX IMVI data. 33 µM (inactive)

Give GI50 only, for O=C1C(C(c2ccccc2)N2CCOCC2)=C(O)C(c2ccccc2)N1c1ccccc1 (centres undefined) , using LOX IMVI data. > 10 µM (inactive)

Give GI50 only, for C/C(=N/S(=O)(=O)c1ccc(Cl)c(Cl)c1)OCC(C)(C)C , using LOX IMVI data. > 100 µM (inactive)

* * *

The compounds listed here are annotated with their GI50.
Test system: RPMI-8226
Assay: NCI tumour cell line growth inhibition, 48 h
Activity calls are given as the source filed them. Cut-off read from the data, not from the text of the source: active = GI50 up to about 1.1 µM and inactive = higher.

See these solved cases before continuing.
>>> observed_value("Cc1c(C(=O)OCc2ccccc2)[n+]([O-])c2cc(Cl)c(Cl)cc2[n+]1[O-]")
"6.46 µM (inactive)"
>>> observed_value("CC(C)CC(N)C(=O)NC(CNC(CCC(N)=O)C(=O)NC(CC(C)C)C(=O)NC(CC(C)C)C(=O)O)Cc1ccc2ccccc2c1 (stereo not drawn)")
"> 10 µM (inactive)"
>>> observed_value("COc1cc2cccc(NC(=O)c3cc(OC)c(OC)c(OC)c3Br)c2cc1OC")
"2.45 µM (inactive)"

// switching to the query compound
Answer with reported GI50 of CN(C)c1ccc(C(c2ccc(N(C)C)cc2)c2ccc([N+](=O)[O-])cc2)cc1 15.1 µM (inactive)

* * *

Test system: Hs-578T
Assay: NCI tumour cell line growth inhibition, 48 h
Calls of active or inactive are those of the source. No stated cut-off is given here; in the data, active = GI50 up to about 1.1 µM and inactive = higher.
Can you answer with just one of these options? 1 = active, -1 = inactive

GET /call?item= COC(=O)c1c(OC(C)=O)ccc2c1c1c(OC(C)=O)c3ccccc3c(OC(C)=O)c1n2C returns the recorded outcome of this test. -1

GET /call?item= CC(C)CC(N)C(=O)NC(CNC(CCC(N)=O)C(=O)NC(CC(C)C)C(=O)NC(CC(C)C)C(=O)O)Cc1ccc2ccccc2c1 (stereo not given) returns the recorded outcome of this test. -1

* * *

System: HL-60
Experiment: NCI tumour cell line growth inhibition, 48 h
Calls of active or inactive are those of the source. Cut-off read from the data, not from the text of the source: active = GI50 up to about 1.1 µM and inactive = higher.
Can you answer with just one of these options? active, inactive

GET /call?item= COC(=O)c1[nH]c(=S)[nH]c(=O)c1-c1ccc(Cl)cc1 returns the recorded outcome of this test. inactive

GET /call?item= [N-]=[N+]=Nc1ccc(NCCCCCC(=O)ON2C(=O)CCC2=O)c([N+](=O)[O-])c1 returns the recorded outcome of this test. inactive

GET /call?item= O/N=C/C1c2ccccc2-c2ccccc21 returns the recorded outcome of this test. inactive

GET /call?item= Nc1ccccc1Sc1ccc(Cl)cc1 returns the recorded outcome of this test. inactive

GET /call?item= CC(=O)CN(Cc1cc(C)c2c(c1)c1ccccc1n2Cc1ccccc1)S(=O)(=O)c1ccc(C)cc1 returns the recorded outcome of this test. inactive

GET /call?item= O=c1c2cccnc2[nH]c2ccc3scnc3c12 returns the recorded outcome of this test. inactive

GET /call?item= O=C1CCCC[C@H]1C(O)CC1CC(=O)N(c2ccccc2)C(=O)C1 (stereo partly drawn) returns the recorded outcome of this test. inactive

GET /call?item= Nc1ncnc2nc(N3CCN(CCO)CC3)[nH]c12 returns the recorded outcome of this test. inactive

GET /call?item= Cc1cc2oc(=O)c(Cl)c(Cl)c2c(C)c1Cl returns the recorded outcome of this test. inactive

GET /call?item= CC(=O)NC(CCCCNC(=O)N(CCCl)N=O)C(=O)NCc1ccccc1 (stereo not drawn) returns the recorded outcome of this test. inactive

GET /call?item= O=c1ccn(C2OC(CO)C(O)C2F)c(=O)n1Cc1ccccc1 (stereo not drawn) returns the recorded outcome of this test. inactive

GET /call?item= O=C1C=C(Sc2ccccc2)c2nccc3c2c1nc1ccccc13 returns the recorded outcome of this test. inactive

GET /call?item= COc1ccc2[nH]c3c(C)c4ccncc4c(C)c3c2c1 returns the recorded outcome of this test. active

GET /call?item= N/C=N/S(=O)(=O)c1ccc(NC(=O)COC(=O)c2cccc3c(=O)c4ccccc4[nH]c23)cc1 returns the recorded outcome of this test. inactive

GET /call?item= C=C(/C=C/C=C(\CO)CCC=C(C)C)[C@H]1CCC2([C@H](CCCO)/C(=C(/C)C=O)CC[C@]2(C)O)[C@H]1O (stereo partly drawn) returns the recorded outcome of this test. inactive

GET /call?item= C#CC1=CC(=O)C(OC)=CC1=O returns the recorded outcome of this test. inactive

GET /call?item= N#C/C=C1\C=CC(O)C(O)C1OC1OC(CO)C(O)C(O)C1O (stereo not drawn) returns the recorded outcome of this test. inactive

GET /call?item= O=C1C(Cl)=C(OCCCCl)C(=O)c2c(O)ccc(O)c21 returns the recorded outcome of this test. active

GET /call?item= CSc1nc(NC2OC(COC(C)=O)C(OC(C)=O)C(OC(C)=O)C2OC(C)=O)c2c(OC(C)=O)c(C)c(=O)oc2n1 (stereo not drawn) returns the recorded outcome of this test. inactive

GET /call?item= CSc1ncnc2c1ncn2CCC#N returns the recorded outcome of this test. inactive

GET /call?item= O=C1C(/C=N/CCc2c[nH]c3ccccc23)C(C(F)(F)F)=NN1c1nc2ccccc2s1 (stereo not drawn) returns the recorded outcome of this test. inactive

GET /call?item= CCOC(=O)/C(C(C)=O)=C(\OC(C)=O)c1ccncc1C(=O)O returns the recorded outcome of this test. inactive

GET /call?item= Cc1ccc(-n2c(C)nc3c2C(=O)c2ccccc2C3=O)cc1 returns the recorded outcome of this test. inactive
